The measurements presented in this section are drawn from patent US20050282743A1.

test.target: T1, GST-KIAA0807(S) PDZ domain 1 (Homo sapiens (Human)), Q6P0Q8
T1 chain: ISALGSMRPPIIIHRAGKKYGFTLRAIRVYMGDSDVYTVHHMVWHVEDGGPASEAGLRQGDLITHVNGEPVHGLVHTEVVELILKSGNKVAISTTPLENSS
assay.notes: G assay titration, PDZ 0.1 ug/ml
assay.metric: Kd (nM)
All answers are understood in nM, so give the number only.

// query Kd value for entry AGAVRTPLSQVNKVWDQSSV (modifications not checked) [CITRON protein] 1000
